System: Streptococcus pyogenes
Assay: Antibacterial activity against erythromycin A-susceptible Streptococcus pyogenes B0542 by agar microdilution method
Give MIC for every item shown.

Worked examples, 2 compounds total:
Task: Form field: MIC recorded for CC[C@H]1OC(=O)[C@H](C)C(=O)[C@H](C)[C@@H](O[C@@H]2O[C@H](C)C[C@H](N(C)C)[C@H]2O)[C@](C)(OCC(O)CNCCCc2ccccc2)C[C@@H](C)NC(=O)[C@H](C)[C@@H](O)[C@]1(C)O (stereo partly specified) with Streptococcus pyogenes (enter value)
Output: 0.25 µg/mL

Task: Another compound to look at: CC[C@H]1OC(=O)[C@H](C)C(=O)[C@H](C)[C@@H](O[C@@H]2O[C@H](C)C[C@H](N(C)C)[C@H]2O)[C@](C)(OCC(O)CNc2ccc3ncccc3c2)C[C@@H](C)NC(=O)[C@H](C)[C@@H](O)[C@]1(C)O (stereo partly specified)
Output: ≤ 0.125 µg/mL

I have 8 compounds here; please give me MIC for each one.
1. CC[C@H]1OC(=O)[C@H](C)C(=O)[C@H](C)[C@@H](O[C@@H]2O[C@H](C)C[C@H](N(C)C)[C@H]2O)[C@](C)(OCC(O)CN[C@H](C)Cc2ccc([N+](=O)[O-])cc2)C[C@@H](C)NC(=O)[C@H](C)[C@@H](O)[C@]1(C)O (mixture of isomers)
2. CC[C@H]1OC(=O)[C@H](C)C(=O)[C@H](C)[C@@H](O[C@@H]2O[C@H](C)C[C@H](N(C)C)[C@H]2O)[C@](C)(OCC2CO2)C[C@@H](C)NC(=O)[C@H](C)[C@@H](O)[C@]1(C)O (stereo partly specified)
3. CC[C@H]1OC(=O)[C@H](C)[C@@H](O[C@H]2C[C@@](C)(OC)[C@@H](O)[C@H](C)O2)[C@H](C)[C@@H](O[C@@H]2O[C@H](C)C[C@H](N(C)C)[C@H]2O)[C@](C)(O)C[C@@H](C)CN(C)[C@H](C)[C@@H](O)[C@]1(C)O
4. CC[C@H]1OC(=O)[C@H](C)C(=O)[C@H](C)[C@@H](O[C@@H]2O[C@H](C)C[C@H](N(C)C)[C@H]2O)[C@](C)(OCC(O)CN2CCN(c3ccc([N+](=O)[O-])cc3)CC2)C[C@@H](C)NC(=O)[C@H](C)[C@@H](O)[C@]1(C)O (stereo partly specified)
5. CCOc1ccccc1N1CCN(CC(O)CO[C@]2(C)C[C@@H](C)NC(=O)[C@H](C)[C@@H](O)[C@](C)(O)[C@@H](CC)OC(=O)[C@H](C)C(=O)[C@H](C)[C@H]2O[C@@H]2O[C@H](C)C[C@H](N(C)C)[C@H]2O)CC1 (mixture of isomers)
6. CC[C@H]1OC(=O)[C@H](C)C(=O)[C@H](C)[C@@H](O[C@@H]2O[C@H](C)C[C@H](N(C)C)[C@H]2O)[C@](C)(OCC(O)CNCc2cnc3ccccc3c2)C[C@@H](C)NC(=O)[C@H](C)[C@@H](O)[C@]1(C)O (mixture of isomers)
7. CC[C@H]1OC(=O)[C@H](C)C(=O)[C@H](C)[C@@H](O[C@@H]2O[C@H](C)C[C@H](N(C)C)[C@H]2O)[C@](C)(OCC(O)CNCCNc2cnc3ccccc3c2)C[C@@H](C)NC(=O)[C@H](C)[C@@H](O)[C@]1(C)O (mixture of isomers)
8. CC[C@H]1OC(=O)[C@H](C)C(=O)[C@H](C)[C@@H](O[C@@H]2O[C@H](C)C[C@H](N(C)C)[C@H]2O)[C@](C)(OCC(O)CNCCc2ccccc2)C[C@@H](C)NC(=O)[C@H](C)[C@@H](O)[C@]1(C)O (mixture of isomers)

Output:
["≤ 0.125 µg/mL", "4 µg/mL", "≤ 0.125 µg/mL", "0.25 µg/mL", "≤ 0.125 µg/mL", "≤ 0.125 µg/mL", "≤ 0.125 µg/mL", "0.5 µg/mL"]

I have 6 compounds here; please give me MIC for each one.
1. CC[C@H]1OC(=O)[C@H](C)C(=O)[C@H](C)[C@@H](O[C@@H]2O[C@H](C)C[C@H](N(C)C)[C@H]2O)[C@](C)(OCC(O)CN2CCN(c3ccc(F)cc3)CC2)C[C@@H](C)NC(=O)[C@H](C)[C@@H](O)[C@]1(C)O (stereo partly specified)
2. CC[C@H]1OC(=O)[C@H](C)C(=O)[C@H](C)[C@@H](O[C@@H]2O[C@H](C)C[C@H](N(C)C)[C@H]2O)[C@](C)(OCC(O)CNCCc2cccnc2)C[C@@H](C)NC(=O)[C@H](C)[C@@H](O)[C@]1(C)O (stereo partly specified)
3. CC[C@H]1OC(=O)[C@H](C)C(=O)[C@H](C)[C@@H](O[C@@H]2O[C@H](C)C[C@H](N(C)C)[C@H]2O)[C@](C)(OC[C@@H](O)CNCCNc2ccc3ncccc3c2)C[C@@H](C)NC(=O)[C@H](C)[C@@H](O)[C@]1(C)O
4. CC[C@H]1OC(=O)[C@H](C)C(=O)[C@H](C)[C@@H](O[C@@H]2O[C@H](C)C[C@H](N(C)C)[C@H]2O)[C@](C)(OCC(O)CNCCc2ccc([N+](=O)[O-])cc2)C[C@@H](C)NC(=O)[C@H](C)[C@@H](O)[C@]1(C)O (mixture of isomers)
5. CC[C@H]1OC(=O)[C@H](C)C(=O)[C@H](C)[C@@H](O[C@@H]2O[C@H](C)C[C@H](N(C)C)[C@H]2O)[C@](C)(OCC=Cc2cnc3ccccc3c2)C[C@@H](C)C(=O)[C@H](C)[C@H]2NC(=O)O[C@@]21C
6. CC[C@H]1OC(=O)[C@H](C)C(=O)[C@H](C)[C@@H](O[C@@H]2O[C@H](C)C[C@H](N(C)C)[C@H]2O)[C@](C)(OCC(O)CNCCc2ccccn2)C[C@@H](C)NC(=O)[C@H](C)[C@@H](O)[C@]1(C)O (mixture of isomers)

Output:
≤ 0.125 µg/mL
0.25 µg/mL
≤ 0.125 µg/mL
≤ 0.125 µg/mL
≤ 0.06 µg/mL
0.25 µg/mL

---

Give MIC for every item shown.
Test system: Staphylococcus aureus
Assay: Antibacterial activity against constitutive macrolide-lincosamide-streptogramin B-resistant Staphylococcus aureus B0330 by agar microdilution method
Type: functional

Task: Form field: MIC recorded for "CC[C@H]1OC(=O)[C@H](C)C(=O)[C@H](C)[C@@H](O[C@@H]2O[C@H](C)C[C@H](N(C)C)[C@H]2O)[C@](C)(OC[C@@H](O)CNCCNc2ccc3ncccc3c2)C[C@@H](C)NC(=O)[C@H](C)[C@@H](O)[C@]1(C)O" with Staphylococcus aureus (enter value)
Output: > 64 µg/mL

Could you now consider this next molecule?
Task: Form field: MIC recorded for CC[C@H]1OC(=O)[C@H](C)C(=O)[C@H](C)[C@@H](O[C@@H]2O[C@H](C)C[C@H](N(C)C)[C@H]2O)[C@](C)(OCC(O)CN2CCN(c3cnc4ccccc4c3)CC2)C[C@@H](C)NC(=O)[C@H](C)[C@@H](O)[C@]1(C)O (some centres not stated) with Staphylococcus aureus (enter value)
Output: > 64 µg/mL

---

Tested on: Streptococcus pyogenes
Test: Antibacterial activity against inducible macrolide-lincosamide-streptogramin B-resistant Streptococcus pyogenes B0543 by agar microdilution method
Format: functional
Give MIC for every item shown.

Task: Form field: MIC recorded for CC[C@H]1OC(=O)[C@H](C)C(=O)[C@H](C)[C@@H](O[C@@H]2O[C@H](C)C[C@H](N(C)C)[C@H]2O)[C@](C)(OCC(O)CN[C@H](C)Cc2ccc([N+](=O)[O-])cc2)C[C@@H](C)NC(=O)[C@H](C)[C@@H](O)[C@]1(C)O (mixture of isomers) with Streptococcus pyogenes (enter value)
Output: 0.5 µg/mL

Task: Another compound to look at: "CC[C@H]1OC(=O)[C@H](C)C(=O)[C@H](C)[C@@H](O[C@@H]2O[C@H](C)C[C@H](N(C)C)[C@H]2O)[C@](C)(OC[C@H](O)CNCCNc2ccc3ncccc3c2)C[C@@H](C)NC(=O)[C@H](C)[C@@H](O)[C@]1(C)O"
Output: 0.5 µg/mL

Task: Another compound to look at: CC[C@H]1OC(=O)[C@H](C)[C@@H](O[C@H]2C[C@@](C)(OC)[C@@H](O)[C@H](C)O2)[C@H](C)[C@@H](O[C@@H]2O[C@H](C)C[C@H](N(C)C)[C@H]2O)[C@](C)(O)C[C@@H](C)CN(C)[C@H](C)[C@@H](O)[C@]1(C)O [AZITHROMYCIN]
Output: 8 µg/mL

Task: Another compound to look at: CC[C@H]1OC(=O)[C@H](C)C(=O)[C@H](C)[C@@H](O[C@@H]2O[C@H](C)C[C@H](N(C)C)[C@H]2O)[C@](C)(OCC(O)CN2CCN(c3ccc([N+](=O)[O-])cc3)CC2)C[C@@H](C)NC(=O)[C@H](C)[C@@H](O)[C@]1(C)O (stereo partly specified)
Output: 2 µg/mL

Task: Another compound to look at: CC[C@H]1OC(=O)[C@H](C)C(=O)[C@H](C)[C@@H](O[C@@H]2O[C@H](C)C[C@H](N(C)C)[C@H]2O)[C@](C)(OCC(O)CNCCCCc2cccnc2)C[C@@H](C)NC(=O)[C@H](C)[C@@H](O)[C@]1(C)O (stereo partly specified)
Output: ≤ 0.125 µg/mL

I have 6 compounds here; please give me MIC for each one.
1. CC[C@H]1OC(=O)[C@H](C)C(=O)[C@H](C)[C@@H](O[C@@H]2O[C@H](C)C[C@H](N(C)C)[C@H]2O)[C@](C)(OCC(O)CN[C@H](C)Cc2ccc(OC)cc2)C[C@@H](C)NC(=O)[C@H](C)[C@@H](O)[C@]1(C)O (mixture of isomers)
2. CC[C@H]1OC(=O)[C@H](C)C(=O)[C@H](C)[C@@H](O[C@@H]2O[C@H](C)C[C@H](N(C)C)[C@H]2O)[C@](C)(OCC(O)CN2CCN(c3ccc(F)cc3)CC2)C[C@@H](C)NC(=O)[C@H](C)[C@@H](O)[C@]1(C)O (stereo partly specified)
3. CC[C@H]1OC(=O)[C@H](C)C(=O)[C@H](C)[C@@H](O[C@@H]2O[C@H](C)C[C@H](N(C)C)[C@H]2O)[C@](C)(OC[C@@H](O)CNCCNc2ccc3ncccc3c2)C[C@@H](C)NC(=O)[C@H](C)[C@@H](O)[C@]1(C)O
4. CC[C@H]1OC(=O)[C@H](C)C(=O)[C@H](C)[C@@H](O[C@@H]2O[C@H](C)C[C@H](N(C)C)[C@H]2O)[C@](C)(OCC(O)CNCCc2ccc([N+](=O)[O-])cc2)C[C@@H](C)NC(=O)[C@H](C)[C@@H](O)[C@]1(C)O (mixture of isomers)
5. CC[C@H]1OC(=O)[C@H](C)C(=O)[C@H](C)[C@@H](O[C@@H]2O[C@H](C)C[C@H](N(C)C)[C@H]2O)[C@](C)(OCC(O)CN2CCN(c3cnc4ccccc4c3)CC2)C[C@@H](C)NC(=O)[C@H](C)[C@@H](O)[C@]1(C)O (stereo partly specified)
6. CC[C@H]1OC(=O)[C@H](C)C(=O)[C@H](C)[C@@H](O[C@@H]2O[C@H](C)C[C@H](N(C)C)[C@H]2O)[C@](C)(OCC(O)CNCCNc2cnc3ccccc3c2)C[C@@H](C)NC(=O)[C@H](C)[C@@H](O)[C@]1(C)O (mixture of isomers)

Output:
1. 1 µg/mL
2. 4 µg/mL
3. ≤ 0.125 µg/mL
4. 0.25 µg/mL
5. 8 µg/mL
6. 1 µg/mL
